Test system: SEM cells
Assay Summary: WST-1 metabolic activity assay
Assay type: cell-based
Test Conditions: Homo sapiens, 72 h, read-out: metabolic activity
Measured Attribute: activity at 10 µM (%)
State the answer as a number, implicitly in %.

Before answering, review these 2 worked examples.
{"columns": ["Molecule", "Unit Spec", "activity at 10 µM"],
 "data": [
  ["O=c1c2cc(Cl)ccc2nc2n1Cc1ccccc1-2 [FX-3]", "%", 26.7],
  ["Cc1ccc2cc(-c3ccccc3)nc(N)c2c1 [FX-43, 7-Methyl-3-phenylisoquinolin-1-amine]", "%", 94.3]
]}

activity at 10 µM recorded for this molecule, Cc1ccc2c(=O)n3c(nc2c1)-c1ccc(F)cc1C3 [FX-5] , is 74.7

// activity at 10 µM value for Cc1ccc2nc3n(c(=O)c2c1)Cc1ccccc1-3 [FX-7] : 25.2
